All values here come from PubChem BioAssay AID1919013.

- Test system: LG0703-F498-PDC complex spheroid growth
- PROCEDURE DETAILS: Anticancer human tumor LG0703-F498-PDC patient-derived lung adenocarcinoma cell line growth inhibition [AhR]; active = viability on the fitted dose curve at most 10% of control; inactive = the rest
- STATED CONDITIONS: second compound 10 µM; first compound 0.316 µM
Possible outcomes: 1 for active, -1 for inactive

COc1cccc2c1C(=O)c1c(O)c3c(c(O)c1C2=O)CC(O)(C(=O)CO)CC3OC1CC(N)C(O)C(C)O1 (centres undefined) + CC(CO)NC(=O)c1cc(-c2ccc(Cl)cc2)nn(-c2cnn(C)c2)c1=O | -1
COc1cc(C2c3cc4c(cc3C(OC3OC5COC(C)OC5C(O)C3O)C3COC(=O)C23)OCO4)cc(OC)c1O (centres undefined) + Cc1cncc(-c2nc(NCCc3c[nH]c4ccccc34)c3ncn(C(C)C)c3n2)c1 | 1
Nc1ncn(C2CC(O)C(CO)O2)c(=O)n1 (centres undefined) + CC(CO)NC(=O)c1cc(-c2ccc(Cl)cc2)nn(-c2cnn(C)c2)c1=O | -1
COc1cc(Nc2ncc3c(n2)-c2ccc(Cl)cc2C(c2c(F)cccc2OC)=NC3)ccc1C(=O)O + CC(CO)NC(=O)c1cc(-c2ccc(Cl)cc2)nn(-c2cnn(C)c2)c1=O | -1
COc1cccc2c1C(=O)c1c(O)c3c(c(O)c1C2=O)CC(O)(C(=O)CO)CC3OC1CC(N)C(O)C(C)O1 (centres undefined) + Cc1cncc(-c2nc(NCCc3c[nH]c4ccccc34)c3ncn(C(C)C)c3n2)c1 | 1
COc1cc(Nc2ncc3c(n2)-c2ccc(Cl)cc2C(c2c(F)cccc2OC)=NC3)ccc1C(=O)O + Cc1ccccc1N=Nc1ccc(NC(=O)c2ccnn2C)c(C)c1 | -1
COc1ccc([C@@H](O)c2cc(-c3ncnc4cc(N5CCOCC5)ccc34)c(F)cc2Cl)nn1 + Cc1ccccc1N=Nc1ccc(NC(=O)c2ccnn2C)c(C)c1 | -1
CC1COCCN1c1cc(C2(S(C)(=N)=O)CC2)nc(-c2ccnc3[nH]ccc23)n1 (centres undefined) + CC(CO)NC(=O)c1cc(-c2ccc(Cl)cc2)nn(-c2cnn(C)c2)c1=O | -1
CC(C)c1c(-c2ccccc2)nc2c(C#N)c[nH]n2c1=O + Cc1cncc(-c2nc(NCCc3c[nH]c4ccccc34)c3ncn(C(C)C)c3n2)c1 | 1
CC1COCCN1c1cc(-c2ccnn2C)c2ccnc(-c3ccn[nH]3)c2n1 (centres undefined) + Cc1ccccc1N=Nc1ccc(NC(=O)c2ccnn2C)c(C)c1 | -1
COc1cc(C2c3cc4c(cc3C(OC3OC5COC(C)OC5C(O)C3O)C3COC(=O)C23)OCO4)cc(OC)c1O (centres undefined) + CC(CO)NC(=O)c1cc(-c2ccc(Cl)cc2)nn(-c2cnn(C)c2)c1=O | -1
CC1COCCN1c1cc(C2(S(C)(=N)=O)CC2)nc(-c2ccnc3[nH]ccc23)n1 (centres undefined) + Cc1cncc(-c2nc(NCCc3c[nH]c4ccccc34)c3ncn(C(C)C)c3n2)c1 | 1
Nc1ccn(C2OC(CO)C(O)C2(F)F)c(=O)n1 (centres undefined) + Cc1cncc(-c2nc(NCCc3c[nH]c4ccccc34)c3ncn(C(C)C)c3n2)c1 | 1
Nc1ccn(C2OC(CO)C(O)C2(F)F)c(=O)n1 (centres undefined) + Cc1ccccc1N=Nc1ccc(NC(=O)c2ccnn2C)c(C)c1 | -1
COc1cccc2c1C(=O)c1c(O)c3c(c(O)c1C2=O)CC(O)(C(=O)CO)CC3OC1CC(N)C(O)C(C)O1 (centres undefined) + Cc1ccccc1N=Nc1ccc(NC(=O)c2ccnn2C)c(C)c1 | -1
O=C(C=Cc1cccc(S(=O)(=O)Nc2ccccc2)c1)NO + CC(CO)NC(=O)c1cc(-c2ccc(Cl)cc2)nn(-c2cnn(C)c2)c1=O | -1
Nc1ccccc1NC(=O)c1ccc(CNC(=O)OCc2cccnc2)cc1 + Cc1cncc(-c2nc(NCCc3c[nH]c4ccccc34)c3ncn(C(C)C)c3n2)c1 | 1
Nc1ncn(C2CC(O)C(CO)O2)c(=O)n1 (centres undefined) + Cc1ccccc1N=Nc1ccc(NC(=O)c2ccnn2C)c(C)c1 | -1
O=C(C=Cc1cccc(S(=O)(=O)Nc2ccccc2)c1)NO + Cc1cncc(-c2nc(NCCc3c[nH]c4ccccc34)c3ncn(C(C)C)c3n2)c1 | 1
O=C(c1cc(Cc2n[nH]c(=O)c3ccccc23)ccc1F)N1CCN(C(=O)C2CC2)CC1 + Cc1cncc(-c2nc(NCCc3c[nH]c4ccccc34)c3ncn(C(C)C)c3n2)c1 | 1
Nc1ncn(C2CC(O)C(CO)O2)c(=O)n1 (centres undefined) + Cc1cncc(-c2nc(NCCc3c[nH]c4ccccc34)c3ncn(C(C)C)c3n2)c1 | 1
CC1(C)CCC(CN2CCN(c3ccc(C(=O)NS(=O)(=O)c4ccc(NCC5CCOCC5)c([N+](=O)[O-])c4)c(Oc4cnc5[nH]ccc5c4)c3)CC2)=C(c2ccc(Cl)cc2)C1 + CC(CO)NC(=O)c1cc(-c2ccc(Cl)cc2)nn(-c2cnn(C)c2)c1=O | -1
COc1ccc([C@@H](O)c2cc(-c3ncnc4cc(N5CCOCC5)ccc34)c(F)cc2Cl)nn1 + CC(CO)NC(=O)c1cc(-c2ccc(Cl)cc2)nn(-c2cnn(C)c2)c1=O | -1
CC1COCCN1c1cc(-c2ccnn2C)c2ccnc(-c3ccn[nH]3)c2n1 (centres undefined) + CC(CO)NC(=O)c1cc(-c2ccc(Cl)cc2)nn(-c2cnn(C)c2)c1=O | -1

###

- Test system: LG0703-F498-PDC complex spheroid growth
- PROCEDURE DETAILS: Anticancer human tumor LG0703-F498-PDC cell line growth inhibition [AhR]; active = viability on the fitted dose curve at most 10% of control; inactive = the rest;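 also: luminescence taken as a proxy for viable cell amount; percent of DMSO vehicle control where 100% means growth equal to vehicle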
- STATED CONDITIONS: second compound 10 µM; first compound 0.1 µM
- Description: Multicellular complex tumor spheroid response to aryl hydrocarbon receptor antagonists in combination with a variety of drugs and investigational agents in selected tumor cell lines […] Compounds. […] If the clinical Cmax for an agent had not been determined, the highest concentration tested was 10 microM (Table 1). […]
Possible outcomes: active, inactive

Nc1ccn(C2OC(CO)C(O)C2(F)F)c(=O)n1 (stereo not drawn) + Cc1ccccc1N=Nc1ccc(NC(=O)c2ccnn2C)c(C)c1 | inactive
COc1cc(C2c3cc4c(cc3C(OC3OC5COC(C)OC5C(O)C3O)C3COC(=O)C23)OCO4)cc(OC)c1O (stereo not drawn) + Cc1ccccc1N=Nc1ccc(NC(=O)c2ccnn2C)c(C)c1 | inactive
CC(C)c1c(-c2ccccc2)nc2c(C#N)c[nH]n2c1=O + CC(CO)NC(=O)c1cc(-c2ccc(Cl)cc2)nn(-c2cnn(C)c2)c1=O | inactive
CC1COCCN1c1cc(C2(S(C)(=N)=O)CC2)nc(-c2ccnc3[nH]ccc23)n1 (stereo not drawn) + Cc1cncc(-c2nc(NCCc3c[nH]c4ccccc34)c3ncn(C(C)C)c3n2)c1 | active
NS(=O)(=O)OCC1CC(n2ccc3c(NC4CCc5ccccc54)ncnc32)CC1O (stereo not drawn) + CC(CO)NC(=O)c1cc(-c2ccc(Cl)cc2)nn(-c2cnn(C)c2)c1=O | inactive
COc1ccc([C@@H](O)c2cc(-c3ncnc4cc(N5CCOCC5)ccc34)c(F)cc2Cl)nn1 + Cc1ccccc1N=Nc1ccc(NC(=O)c2ccnn2C)c(C)c1 | inactive
COc1cc(Nc2ncc3c(n2)-c2ccc(Cl)cc2C(c2c(F)cccc2OC)=NC3)ccc1C(=O)O + Cc1cncc(-c2nc(NCCc3c[nH]c4ccccc34)c3ncn(C(C)C)c3n2)c1 | active
O=C(C=Cc1cccc(S(=O)(=O)Nc2ccccc2)c1)NO + Cc1ccccc1N=Nc1ccc(NC(=O)c2ccnn2C)c(C)c1 | inactive
Cn1ncnc1C1c2n[nH]c(=O)c3cc(F)cc(c23)NC1c1ccc(F)cc1 (stereo not drawn) + Cc1cncc(-c2nc(NCCc3c[nH]c4ccccc34)c3ncn(C(C)C)c3n2)c1 | active
CC[C@@]1(O)C(=O)OCc2c1cc1n(c2=O)Cc2cc3c(CN(C)C)c(O)ccc3nc2-1 + CC(CO)NC(=O)c1cc(-c2ccc(Cl)cc2)nn(-c2cnn(C)c2)c1=O | inactive
COc1cc(C2c3cc4c(cc3C(OC3OC5COC(C)OC5C(O)C3O)C3COC(=O)C23)OCO4)cc(OC)c1O (stereo not drawn) + CC(CO)NC(=O)c1cc(-c2ccc(Cl)cc2)nn(-c2cnn(C)c2)c1=O | inactive
CC1COCCN1c1cc(C2(S(C)(=N)=O)CC2)nc(-c2ccnc3[nH]ccc23)n1 (stereo not drawn) + CC(CO)NC(=O)c1cc(-c2ccc(Cl)cc2)nn(-c2cnn(C)c2)c1=O | inactive
COc1cc(Nc2ncc3c(n2)-c2ccc(Cl)cc2C(c2c(F)cccc2OC)=NC3)ccc1C(=O)O + CC(CO)NC(=O)c1cc(-c2ccc(Cl)cc2)nn(-c2cnn(C)c2)c1=O | inactive
COc1cc(C2c3cc4c(cc3C(OC3OC5COC(C)OC5C(O)C3O)C3COC(=O)C23)OCO4)cc(OC)c1O (stereo not drawn) + Cc1cncc(-c2nc(NCCc3c[nH]c4ccccc34)c3ncn(C(C)C)c3n2)c1 | active
CC1(C)CCC(CN2CCN(c3ccc(C(=O)NS(=O)(=O)c4ccc(NCC5CCOCC5)c([N+](=O)[O-])c4)c(Oc4cnc5[nH]ccc5c4)c3)CC2)=C(c2ccc(Cl)cc2)C1 + Cc1cncc(-c2nc(NCCc3c[nH]c4ccccc34)c3ncn(C(C)C)c3n2)c1 | active
O=C(c1cc(Cc2n[nH]c(=O)c3ccccc23)ccc1F)N1CCN(C(=O)C2CC2)CC1 + CC(CO)NC(=O)c1cc(-c2ccc(Cl)cc2)nn(-c2cnn(C)c2)c1=O | inactive
CC1COCCN1c1cc(-c2ccnn2C)c2ccnc(-c3ccn[nH]3)c2n1 (stereo not drawn) + CC(CO)NC(=O)c1cc(-c2ccc(Cl)cc2)nn(-c2cnn(C)c2)c1=O | inactive
O=C(C=Cc1cccc(S(=O)(=O)Nc2ccccc2)c1)NO + Cc1cncc(-c2nc(NCCc3c[nH]c4ccccc34)c3ncn(C(C)C)c3n2)c1 | active
Nc1ncn(C2CC(O)C(CO)O2)c(=O)n1 (stereo not drawn) + Cc1cncc(-c2nc(NCCc3c[nH]c4ccccc34)c3ncn(C(C)C)c3n2)c1 | active
COc1ccc([C@@H](O)c2cc(-c3ncnc4cc(N5CCOCC5)ccc34)c(F)cc2Cl)nn1 + CC(CO)NC(=O)c1cc(-c2ccc(Cl)cc2)nn(-c2cnn(C)c2)c1=O | inactive
Nc1ccn(C2OC(CO)C(O)C2(F)F)c(=O)n1 (stereo not drawn) + Cc1cncc(-c2nc(NCCc3c[nH]c4ccccc34)c3ncn(C(C)C)c3n2)c1 | active
CC[C@@]1(O)C(=O)OCc2c1cc1n(c2=O)Cc2cc3c(CN(C)C)c(O)ccc3nc2-1 + Cc1cncc(-c2nc(NCCc3c[nH]c4ccccc34)c3ncn(C(C)C)c3n2)c1 | active
O=C(c1cc(Cc2n[nH]c(=O)c3ccccc23)ccc1F)N1CCN(C(=O)C2CC2)CC1 + Cc1ccccc1N=Nc1ccc(NC(=O)c2ccnn2C)c(C)c1 | inactive
